Test system: human colon carcinoma cell line HCT116
Assay: Caspase cascade activation in HCT116 cells
Type: cell-based
Settings: Homo sapiens, HCT-116, 48 h, read-out: Caspase activation Potency EC50 HCT116 (48 h)
endpoint: pEC50
Scale: negative log10 of molar concentration, which is what pEC50 denotes.

# example entries with known answers
COC(=O)c1cc(Nc2ncnc3ccsc23)cc(C(=O)OC)c1 | 6.46
COc1cc(Nc2nc(C)nc3cc(Br)sc23)cc(N(C)C)c1 | 6.30
COc1cc(Nc2ncnc3ccsc23)cc(N(C)C)c1 | 6.49

[Q] Fill in the blank: the reported pEC50 of COc1c(Br)c(N)c(Br)c(Nc2ncnc3ccsc23)c1Br is ____.
[A] 5.78
